Below, each of the compounds is paired with its reported Hemolysis at 100 μg/ml value.
- System: human red blood cells (hRBC)
- Type: cell-based
- ASSAY CONTEXT: red cells of human, 1 h
Where a SMILES comes first, the peptide text is derived from it. [ ]: non-standard residue; d: D form. Tle = CC(C)(C)[C@H](N)C(=O)O; dDab = NCC[C@@H](N)C(=O)O; Orn = NCCC[C@H](N)C(=O)O; Dab = NCC[C@H](N)C(=O)O

Worked examples follow.
1. CC(C)C[C@@H]1NC(=O)[C@@H]2CCCN2C(=O)[C@H]2CCCN2C(=O)[C@H](CO)NC(=O)[C@H](C)NC(=O)[C@H](C(C)(C)C)NC(=O)[C@H](CCN)NC(=O)[C@H](Cc2c[nH]c3ccccc23)NC(=O)[C@H](CCN)NC(=O)[C@@H](CCN)NC(=O)[C@H](CCCCN)NC(=O)[C@H](CCN)NC(=O)[C@H](Cc2ccc(O)cc2)NC(=O)[C@H](Cc2c[nH]cn2)NC1=O [compound 25] (cyclo(LHY[Dab]K[dDab][Dab]W[Dab][Tle]AS[dP]P)) : 0%
2. C[C@@H]1NC(=O)[C@H](C(C)(C)C)NC(=O)[C@H](CCN)NC(=O)[C@H](Cc2c[nH]c3ccccc23)NC(=O)[C@H](CCN)NC(=O)[C@H](CCN)NC(=O)[C@H](CCCN)NC(=O)[C@H](CCN)NC(=O)[C@H](Cc2ccc(O)cc2)NC(=O)[C@H](Cc2c[nH]cn2)NC(=O)[C@H](Cc2c[nH]c3ccccc23)NC(=O)[C@@H]2CCCN2C(=O)[C@H]2CCCN2C(=O)[C@H](CO)NC1=O [compound 18] (cyclo(WHY[Dab][Orn][Dab][Dab]W[Dab][Tle]AS[dP]P)) : 0%
3. CC(C)C[C@@H]1NC(=O)[C@@H]2CCCN2C(=O)[C@H]2CCCN2C(=O)[C@H](CO)NC(=O)[C@H](C)NC(=O)[C@H](C(C)(C)C)NC(=O)[C@H](CCN)NC(=O)[C@H](Cc2c[nH]c3ccccc23)NC(=O)[C@H](CCN)NC(=O)[C@@H](CCN)NC(=O)[C@H](CCCN)NC(=O)[C@H](CCN)NC(=O)[C@H](Cc2ccc(O)cc2)NC(=O)[C@H](Cc2c[nH]c3ccccc23)NC1=O [compound 28] (cyclo(LWY[Dab][Orn][dDab][Dab]W[Dab][Tle]AS[dP]P)) : 1%

Okay, now this compound:
The compound CC(C)C[C@@H]1NC(=O)[C@@H]2CCCN2C(=O)[C@H]2CCCN2C(=O)[C@H](CO)NC(=O)[C@H](CO)NC(=O)[C@H](C(C)(C)C)NC(=O)[C@H](CCN)NC(=O)[C@H](Cc2c[nH]c3ccccc23)NC(=O)[C@H](CCN)NC(=O)[C@@H](CCN)NC(=O)[C@H](CCCN)NC(=O)[C@H](CCN)NC(=O)[C@H](Cc2ccc(O)cc2)NC(=O)[C@H](Cc2c[nH]cn2)NC1=O [compound 30] (cyclo(LHY[Dab][Orn][dDab][Dab]W[Dab][Tle]SS[dP]P)) showed Hemolysis at 100 μg/ml equal to 1%
